Hello, the source for this data is patent US8999990B2, in case you need it.

# Assay Target: hROMK (hKir1.1) (Homo sapiens)
# Construct: expressed in transfected cells
# Test Method Notes: Thallium Flux Assay
# Assay type: cell-based
# Test Conditions: text of Example 55; separated stereo-isomer; read-out: IC50 in the Thallium Flux Assay
Measured Parameter: IC50

Please give measured IC50 of the following entry: Cc1c(C(O)CN2CCN(CCc3ccc(C#N)cn3)C(=O)C2)ccc2c1COC2=O (single isomer, unassigned) [Isomer A]
> 1000 nM

---

Please respond with reported IC50 for every item in the list.
# Assay Target: hROMK1 (Kir1.1) (Homo sapiens)
# Test Method Notes: 86Rb+ Efflux Assay
# Test Conditions: CHO-DHFR- cells stably expressing hROMK1; 35 min incubation
# Description: Several assays may be used to measure functional inhibition of the ROMK channel by compounds of the instant invention. […] When cells are incubated in the presence of a channel inhibitor, efflux of ^86Rb^+ is prevented in a concentration-dependent manner, and IC50 values of inhibition by compounds can be accurately determined. […]
Write down the value, and be sure its unit follows.

Find IC50 for O=C1OCc2cc(CCN3CCN(CCc4ccc5nonc5c4)C(=O)C3)ccc21 [Example 27] on hROMK1 (Kir1.1) (Homo sapiens) and write it down.
870 nM

Quote hROMK1 (Kir1.1) (Homo sapiens) IC50 for entry N#Cc1ccc2c(c1)CCC(N1CCN(CCc3ccc4nonc4c3)CC1=O)C2 (racemic) [Example 13] .
310 nM

Identify measured IC50 obtained with hROMK1 (Kir1.1) (Homo sapiens) for N#Cc1ccc2c(c1)CCC(N1CCN(CCc3ccc4c(c3Cl)COC4=O)CC1=O)C2 (racemic) [Example 31] .
410 nM

Provide hROMK1 (Kir1.1) (Homo sapiens) IC50 reading for N#Cc1ccc2c(c1)CCC(N1CCN(CCc3ccc4c(c3)CCOC4=O)CC1=O)C2 (racemic) [Example 42] .
300 nM

Identify measured IC50 obtained with hROMK1 (Kir1.1) (Homo sapiens) for O=C1CN(CCc2ccc([N+](=O)[O-])c(F)c2)CCN1CCc1ccc([N+](=O)[O-])cc1 [Example 18] .
40 nM

Supply IC50 measured with hROMK1 (Kir1.1) (Homo sapiens) for N#Cc1ccc2c(c1)CCC(N1CCN([C@@H]3CCc4cc(C#N)ccc4C3)C(=O)C1)C2 (stereo partly shown) [Example 17] .
70 nM

Find the measured IC50 of COC(=O)c1cc(CCN2CCN(CCc3ccc([N+](=O)[O-])cc3)C(=O)C2)ccc1[N+](=O)[O-] [Example 8] with hROMK1 (Kir1.1) (Homo sapiens) as test system.
250 nM

---

# Assay Target: hROMK1 (Kir1.1) (Homo sapiens, UniProt P48048)
# Construct: expressed in transfected cells
# Sequence (P48048 1-391): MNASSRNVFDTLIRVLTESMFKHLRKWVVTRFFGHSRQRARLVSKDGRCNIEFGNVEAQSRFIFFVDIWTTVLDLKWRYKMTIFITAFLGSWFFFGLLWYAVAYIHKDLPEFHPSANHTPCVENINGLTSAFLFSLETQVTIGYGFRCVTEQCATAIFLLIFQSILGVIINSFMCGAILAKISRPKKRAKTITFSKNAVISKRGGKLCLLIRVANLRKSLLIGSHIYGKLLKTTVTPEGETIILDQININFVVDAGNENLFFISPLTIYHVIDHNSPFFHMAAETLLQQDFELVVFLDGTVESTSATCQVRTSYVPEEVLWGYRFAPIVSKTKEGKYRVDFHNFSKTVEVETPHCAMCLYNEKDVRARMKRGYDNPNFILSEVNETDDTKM
# Test Method Notes: 86Rb+ Efflux Assay
# Format: cell-based
# Test Conditions: CHO-DHFR- cells stably expressing hROMK1; 35 min incubation
Can you tell me pIC50 for the items I'm about to list?
// field semantics: pIC50 = negative decimal log of concentration (mol/L)

For the compound N#Cc1ccc(CCN2CCN(CCc3ccc4c(c3)COC4=O)CC2=O)cc1Br , give its reported pIC50.
6.77

Write down pIC50 measured for item N#Cc1ccc2c(c1)CCC2CN1CCN(CCc2ccc3c(c2)COC3=O)CC1=O (racemic)
6.92

Answer with reported pIC50 of N#Cc1ccc(CCN2CCN(C3CCc4cc(C#N)ccc4C3)C(=O)C2)cc1 (racemic)
6.62

Note down pIC50 recorded for Cc1cc([N+](=O)[O-])ccc1CCN1CCN(CCc2ccc([N+](=O)[O-])cc2)C(=O)C1
7.30

Identify pIC50 associated with the compound O=C1CN(CCc2ccc([N+](=O)[O-])cc2F)CCN1CCc1ccc([N+](=O)[O-])cc1
6.85

Let me know recorded pIC50 for O=C1CN(CCc2ccc([N+](=O)[O-])c(F)c2)CCN1CCc1ccc2nonc2c1 , thanks.
6.77

Please look at this compound and report its pIC50: N#Cc1ccc2c(c1)CCC(N1CCN(C(=O)Cc3ccc(-n4cnnn4)cc3)CC1=O)C2 (racemic)
6.14

State its pIC50: N#Cc1ccc2c(c1)CCCC2CN1CCN(CCc2ccc3c(c2)COC3=O)CC1=O (racemic)
6.85

---

Provide the recorded IC50 for the entries that follow.
# Assay Target: hROMK (hKir1.1) (Homo sapiens)
# Construct: expressed in transfected cells
# Test Method Notes: Thallium Flux Assay
# Format: cell-based
# Test Conditions: HEK293 cells stably expressing hROMK; FLIPR-Tetra, 384 wells; read-out: Thallium Flux IC50
Unit nM implied. Number only.

Output IC50 of Cc1c(CCN2CCN(C[C@@H](O)c3ccc4c(c3C)COC4=O)CC2=O)ccc2c1COC2=O
660

Input Cc1c(CCN2CCN(C[C@H](O)c3ccc4c(c3C)COC4=O)CC2=O)ccc2c1COC2=O , output reported IC50.
235

Please report the measured IC50 for Cc1c(CCN2CCN(CCc3ccc(C#N)cn3)C(=O)C2)ccc2c1COC2=O
780

Please list IC50 recorded for the molecule Cc1c(C(O)CN2CCN(C[C@@H](O)c3ccc4c(c3C)COC4=O)CC2=O)ccc2c1COC2=O (some centres unmarked)
270

Provide measured IC50 value, entry: Cc1c(C(O)CN2CCN(C[C@H](O)c3ccc4c(c3C)COC4=O)CC2=O)ccc2c1COC2=O (some centres unmarked)
680

Output measured IC50 for this item: Cc1c(C(=O)CN2CCN(C[C@H](O)c3ccc4c(c3C)COC4=O)CC2=O)ccc(F)c1C#N
125

Provide IC50 value for the following molecule: Cc1cc2c(cc1C(O)CN1CCN(C3CCc4cc(C#N)ccc4C3)C(=O)C1)COC2=O (centres unmarked)
90

Provide measured IC50 value, entry: Cc1c([C@@H](O)CN2CCN(C3CCc4cc(C#N)ccc4C3)C(=O)C2)ccc2c1COC2=O (some centres unmarked)
60

---

Kindly supply the reported IC50 values for the records listed here.
# Assay Target: hROMK (hKir1.1) (Homo sapiens, UniProt P48048)
# Construct: expressed in transfected cells
# Test Method Notes: Thallium Flux Assay
# Format: cell-based
# Test Conditions: HEK293 cells stably expressing hROMK; FLIPR-Tetra, 384 wells; read-out: Thallium Flux IC50
// note: answer is a bare numeric in nM

Let me know recorded IC50 for COc1ccc(C(=O)CN2CCN(C[C@H](O)c3ccc4c(c3C)COC4=O)CC2=O)c(C)c1C#N , thanks.
197

In one line, give reported IC50 of the entry Cc1c(C(O)CN2CCN(CCc3ccc(C#N)cn3)C(=O)C2)ccc2c1COC2=O (single isomer, unassigned) .
310

Name the recorded IC50 of the item Cc1c(C(=O)CN2CCN(C[C@H](O)c3ccc4c(c3C)COC4=O)CC2=O)ccc2c1COC2=O in your answer.
80

---

# Assay Target: hROMK1 (Kir1.1) (Homo sapiens, UniProt P48048)
# Construct: expressed in transfected cells
# Test Method Notes: 86Rb+ Efflux Assay
# Format: cell-based
# Test Conditions: CHO-DHFR- cells stably expressing hROMK1; 35 min incubation
IC50 less than 400 nM is 1 (yes); IC50 greater than or equal to 400 nM is 0 (no).

For this compound, is IC50 lower than 400 nM? O=C1CN(CCc2ccc([N+](=O)[O-])c(C(F)(F)F)c2)CCN1CCc1ccc([N+](=O)[O-])cc1 [Example 3]
0 (no)

IC50 under 400 nM? Item: CC1C(=O)N(CCc2ccc([N+](=O)[O-])cc2)CCN1CCc1ccc([N+](=O)[O-])cc1 (racemic) [Example 6]
1 (yes)

Is it true that IC50 reported for N#Cc1ccc2c(c1)CCC(N1CCN(CCc3ccc4c(c3)COC4=O)CC1=O)C2 (racemic) [Example 26] is less than 400 nM?
1 (yes)

Below 400 nM on IC50? Entry N#Cc1ccc(CCN2CCN(CCc3ccc([N+](=O)[O-])cc3)C(=O)C2)cc1 [Example 5]
1 (yes)

Problem: For the compound COc1cc([N+](=O)[O-])ccc1CCN1CCN(CCc2ccc([N+](=O)[O-])cc2)C(=O)C1 [Example 11] , is IC50 under 400 nM?
1 (yes)

For this compound, is IC50 lower than 400 nM? N#Cc1ccc2c(c1)CCC(N1CCN([C@H]3CCc4cc(C#N)ccc4C3)C(=O)C1)C2 (stereo partly shown) [Example 16]
1 (yes)

Please check: IC50 for COc1ccc(CCN2CCN(CCc3ccc4c(c3)COC4=O)C(=O)C2)cc1C#N [Example 32] , strictly under 400 nM or not?
0 (no)

Below 400 nM on IC50? Entry N#Cc1ccc(CCN2CCN(CCc3ccc4c(c3)COC4=O)CC2=O)cc1Cl [Example 36]
1 (yes)

For this compound, is IC50 lower than 400 nM? O=C1CN(CCc2ccc([N+](=O)[O-])cc2)CCN1CCc1ccc2nonc2c1 [Example 24]
0 (no)

Determine if N#Cc1c(F)ccc2c1CCC2CN1CCN(CCc2ccc3c(c2)COC3=O)CC1=O (stereo not shown) [Example 34] shows IC50 strictly lower than 400 nM.
1 (yes)

hey, is IC50 for O=C1CN(CCc2ccc([N+](=O)[O-])cc2C(F)(F)F)CCN1CCc1ccc([N+](=O)[O-])cc1 [Example 4] lower than 400 nM or not?
1 (yes)

Please indicate whether the reported IC50 of N#Cc1ccc2c(c1)CCC(N1CCN(C(=O)C3CCc4cc(-n5cnnn5)ccc43)CC1=O)C2 (stereo not shown) [Example 57] is strictly below 400 nM.
0 (no)

Hello, is IC50 of the following compound strictly smaller than 400 nM? N#Cc1cccc2c1CCCC2CN1CCN(CCc2ccc3c(c2)COC3=O)CC1=O (racemic) [Example 33]
1 (yes)

IC50 strictly < 400 nM for this compound? COc1cc(CCN2CCN(CCc3ccc([N+](=O)[O-])cc3)C(=O)C2)ccc1[N+](=O)[O-] [Example 22]
1 (yes)

Lab log: compare recorded IC50 with 400 nM; is it strictly lower for O=C1CN(CCc2ccc([N+](=O)[O-])cc2)CCN1CCc1ccc([N+](=O)[O-])cc1 [Example 1] ?
1 (yes)

In the record for N#Cc1ccc2c(c1)CC(N1CCN(CCc3ccc4c(c3)COC4=O)CC1=O)CC2 (racemic) [Example 37] , is IC50 less than 400 nM?
1 (yes)

Field: below-cutoff. Rule: recorded IC50 strictly less than 400 nM. Subject: N#Cc1ccc2c(c1)CCC(N1CCN(CCc3ccc([N+](=O)[O-])cc3)CC1=O)C2 (racemic) [Example 23]
1 (yes)

Is IC50 strictly under 400 nM for the entry N#Cc1ccc2c(c1)CCC(N1CCN(CCc3ccc4c(=O)occc4c3)CC1=O)C2 (racemic) [Example 43] ?
1 (yes)

Below 400 nM on IC50? Entry N#Cc1cc(CCN2CCN(CC(F)c3ccc4c(c3)COC4=O)CC2=O)ccc1F (racemic) [Example 39]
0 (no)

Item N#Cc1ccc2c(c1)CCC(N1CCN(CCc3ccc([N+](=O)[O-])c(F)c3)CC1=O)C2 (racemic) [Example 21] : IC50 beneath 400 nM, strictly?
1 (yes)

Problem: For the compound O=C1OCc2cc(CCN3CCN(CCc4ccc5c(c4)COC5=O)C(=O)C3)ccc21 [Example 29] , is IC50 under 400 nM?
0 (no)

Does N#Cc1ccc2c(c1)CC(N1CCN(CCc3ccc4c(c3)COC4=O)CC1=O)C2 (racemic) [Example 44] have IC50 strictly under 400 nM?
1 (yes)

Please let me know if Cc1c(CCN2CCN(C3CCc4cc(C#N)ccc4C3)C(=O)C2)ccc2c1COC2=O (racemic) [Example 30] shows IC50 below 400 nM.
1 (yes)

Hello, is IC50 of the following compound strictly smaller than 400 nM? N#Cc1ccc2c(c1)CC(CN1CCN(CCc3ccc4c(c3)COC4=O)CC1=O)C2 (racemic) [Example 41]
1 (yes)

Strictly below 400 nM in IC50? N#Cc1ccc2c(c1)CCC(N1CCN(CCc3ccc4nonc4c3)C(=O)C1)C2 (racemic) [Example 14]
0 (no)

For this compound, is IC50 lower than 400 nM? N#Cc1ccc2c(c1)CCC(N1CCN(CCc3ccc([N+](=O)[O-])cc3)C(=O)C1)C2 (racemic) [Example 2]
1 (yes)

Would you kindly verify if IC50 of N#Cc1ccc2c(c1)CCC(N1CCN(C3CCc4cc(C#N)ccc4C3)C(=O)C1)C2 (stereo not shown) [Example 15] is strictly less than 400 nM?
1 (yes)

# check: IC50 < 400 nM for COc1cc([N+](=O)[O-])ccc1CCN1CCN(CCc2ccc3nonc3c2)C(=O)C1 [Example 10]
1 (yes)

Identify whether the compound COc1cc([N+](=O)[O-])ccc1CCN1CCN(C2CCc3cc(C#N)ccc3C2)C(=O)C1 (racemic) [Example 9] records IC50 below 400 nM.
1 (yes)
